Can you tell me koff for the items I'm about to list?
- Experimental target: T1, recombinant human NKG2A/CD94 heterodimer (extracellular domains) (human, UniProt Q13241 32-179)
- T1 construct: extracellular domain; ECDs co-expressed in Expi293, purified by Ni-NTA and anti-Flag; also called HuNKG2A/huCD94; NKG2A/CD94 ECDs
- T1 sequence (chain, as listed by the source, chain 1 of 2): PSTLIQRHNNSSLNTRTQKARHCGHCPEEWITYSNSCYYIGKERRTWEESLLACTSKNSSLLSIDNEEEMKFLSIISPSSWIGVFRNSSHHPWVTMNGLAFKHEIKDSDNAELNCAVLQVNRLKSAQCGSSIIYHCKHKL
- T1 sequence (Q13241 32-179, chain 2 of 2): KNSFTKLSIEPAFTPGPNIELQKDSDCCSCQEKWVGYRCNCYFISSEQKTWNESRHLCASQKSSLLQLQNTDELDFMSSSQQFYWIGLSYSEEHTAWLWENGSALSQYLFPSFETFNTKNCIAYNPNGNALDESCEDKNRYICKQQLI
- Test name: SPR (IBIS MX96), mAb captured on anti-human IgG Fc, ECD heterodimer injected, 1:1 fit
Dear colleague, please return just the value in s⁻¹, with no unit written.

Inquiry: Please list koff recorded for the binder antibody 23566 (antibody, human IgG1, kappa, L234A L235A, V domains shown, Fully human IgG1-LALA (L234A/L235A), kappa; also called mAb 23566) VH: EVQLLESGGDLVQPGGSLRLSCAASGFTFDNYAMHWVRQAPGKGLEWVSTITNSGGTTYYADSVKGRFTLSRDNSKNTLYLQMNSLRAEDTAVYYCAKAHYYARGYFDFWGQGTLVTVSS VL: DIQMTQTPSSVSASVGDRVTITCRASQGISSWLAWYQQKPGKAPKLLIYAASSLQSGVPSRFSGSGSGTDFTLTISSLQPEDFATYYCQQANSFPYTFGQGTKLEIKR
Reply text: 0.0011

Inquiry: Please list koff recorded for the binder antibody 23765 (antibody, human IgG1, kappa, L234A L235A, V domains shown, Fully human IgG1-LALA (L234A/L235A), kappa) VH: EVQLVESGGGLVKPGGSLRLSCAASGFTFSCCRMNWVRQAPGKGLEWVSSISSSSSYIYYADSVKGRFTISRDNAKNSLYLQMNSLRAEDTAVYYCARDGWNDVFDYWGQGTLVTVSS VL: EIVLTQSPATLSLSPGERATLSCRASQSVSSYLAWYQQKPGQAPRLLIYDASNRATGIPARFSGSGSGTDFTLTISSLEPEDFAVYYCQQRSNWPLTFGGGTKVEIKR
Reply text: 0.0013

Inquiry: Please list koff recorded for the binder antibody 23686 (antibody, human IgG1, kappa, L234A L235A, V domains shown, Fully human IgG1-LALA (L234A/L235A), kappa) VH: EVQLVESGGGLVKPGGSLRLSCAASGFTFSSYSMNWVRQAPGKGLEWVSSISSSSSYIYYADSVKGRFTISRDNAKNSLYLQMNSLRAEDTAVYYCARDEWGLLGFDSWGQGTLVTVSS VL: EIVLTQSPATLSLSPGERATLSCRASQSISNYLAWYQQKPGQAPRLLIYDASNRATGIPARFSGSGSGTDFTLTISSLEPEDFAVYYCQQRTDWPPWTFGQGTKVEIKR
Reply text: 0.00014

Inquiry: Please list koff recorded for the binder antibody 23925 (antibody, human IgG1, kappa, L234A L235A, V domains shown, Fully human IgG1-LALA (L234A/L235A), kappa) VH: EVQLVESGGGLVQPGGSLRLSCAASGFTFSSYAMNWVRQAPGKGLEWVSTISNSGGTTYYADSVKGRFTISRDNSKDTLYLQMNSLRAEDTAVYYCAKAHYYARGYFDYWGQGTLVTVSS VL: DIQMTQSPSSVSASVGDRVTITCRASQGISSWLAWYQQKSGKAPKLLIYAASSLQIGVPSRFSGSGSGTDFTLTISSLQPEDFATYYCQQANSFPYTFGQGTKLEIKR
Reply text: 0.00042
